Catalogue of IC50 of virus neutralization (TZM-BL, luciferase) values
assayed.system: HIV-1 CNE20 envelope (Env) on Env.IMC.LucR virus (HIV-1 clade BC)
measurement.notes: cell-based or functional assay
measurement.type: IC50 of virus neutralization (TZM-BL, luciferase) (µg/mL)

binder | result.comparator | experimental.value
NglycoND (antibody, V domains shown) VH: ADLVQSGAVVKKPGDSVRISCEAQGYRFPDYIIHWIRRAPGQGPEWMGWMNPMGGQVNIPWKFQGRVSMTRDTSIETAFLDLRGLKSDDTAVYYCVRDRSDGSGKRFESSNWFLDLWGRGTAVTIQS VL: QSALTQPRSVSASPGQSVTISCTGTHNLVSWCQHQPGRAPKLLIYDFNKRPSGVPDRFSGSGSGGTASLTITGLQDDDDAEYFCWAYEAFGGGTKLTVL | > | 50
Germ23 (antibody, V domains shown) VH: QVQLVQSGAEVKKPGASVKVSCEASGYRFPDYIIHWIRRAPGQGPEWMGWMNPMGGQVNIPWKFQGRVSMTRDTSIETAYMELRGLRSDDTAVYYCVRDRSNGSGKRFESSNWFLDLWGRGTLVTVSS VL: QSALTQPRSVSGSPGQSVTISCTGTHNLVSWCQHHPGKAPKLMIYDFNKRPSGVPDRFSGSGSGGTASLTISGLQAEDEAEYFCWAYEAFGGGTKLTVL | = | 0.066
NVS49-L1A2 (antibody, V domains shown) VH: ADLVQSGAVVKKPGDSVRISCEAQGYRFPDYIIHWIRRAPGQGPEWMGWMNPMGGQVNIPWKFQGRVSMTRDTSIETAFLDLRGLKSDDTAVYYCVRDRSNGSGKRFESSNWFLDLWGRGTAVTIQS VL: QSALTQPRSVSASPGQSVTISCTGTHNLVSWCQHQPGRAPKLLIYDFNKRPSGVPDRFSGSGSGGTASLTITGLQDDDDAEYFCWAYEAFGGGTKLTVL | = | 0.124
CysCV (antibody, V domains shown) VH: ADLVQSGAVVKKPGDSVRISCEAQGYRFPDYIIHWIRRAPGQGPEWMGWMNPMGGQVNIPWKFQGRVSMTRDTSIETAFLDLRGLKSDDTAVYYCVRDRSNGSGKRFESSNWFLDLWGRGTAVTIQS VL: QSALTQPRSVSASPGQSVTISCTGTHNLVSWVQHQPGRAPKLLIYDFNKRPSGVPDRFSGSGSGGTASLTITGLQDDDDAEYFCWAYEAFGGGTKLTVL | = | 0.037
Germ6 (antibody, V domains shown) VH: ADLVQSGAVVKKPGDSVRVSCEAQGYRFPDYIIHWIRRAPGQGPEWMGWMNPMGGQVNIPWKFQGRVSMTRDTSIETAYLDLRGLKSDDTAVYYCVRDRSNGSGKRFESSNWFLDLWGRGTAVTVQS VL: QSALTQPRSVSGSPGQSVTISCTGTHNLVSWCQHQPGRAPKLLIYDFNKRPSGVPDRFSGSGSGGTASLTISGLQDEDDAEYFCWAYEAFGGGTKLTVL | = | 0.091
Germ12 (antibody, V domains shown) VH: QVDLVQSGAVVKKPGDSVRVSCEAQGYRFPDYIIHWIRRAPGQGPEWMGWMNPMGGQVNIPWKFQGRVSMTRDTSIETAYMDLRGLRSDDTAVYYCVRDRSNGSGKRFESSNWFLDLWGRGTLVTVSS VL: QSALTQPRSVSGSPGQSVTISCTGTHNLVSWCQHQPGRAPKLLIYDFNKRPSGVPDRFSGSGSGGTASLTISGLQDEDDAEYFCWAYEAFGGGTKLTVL | = | 0.244
Germ17 (antibody, V domains shown) VH: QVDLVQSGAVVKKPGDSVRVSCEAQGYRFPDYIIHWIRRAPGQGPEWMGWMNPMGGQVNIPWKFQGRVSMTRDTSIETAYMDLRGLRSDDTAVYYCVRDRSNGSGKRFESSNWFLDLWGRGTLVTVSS VL: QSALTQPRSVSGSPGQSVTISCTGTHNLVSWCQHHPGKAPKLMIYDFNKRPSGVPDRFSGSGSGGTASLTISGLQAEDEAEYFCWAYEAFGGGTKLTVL | = | 0.081
Germ12_NglycoSA_CysCA (antibody, V domains shown) VH: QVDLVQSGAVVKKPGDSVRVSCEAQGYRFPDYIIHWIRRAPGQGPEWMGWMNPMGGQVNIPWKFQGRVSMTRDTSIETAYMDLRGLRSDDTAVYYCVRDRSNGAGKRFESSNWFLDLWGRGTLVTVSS VL: QSALTQPRSVSGSPGQSVTISCTGTHNLVSWAQHQPGRAPKLLIYDFNKRPSGVPDRFSGSGSGGTASLTISGLQDEDDAEYFCWAYEAFGGGTKLTVL | = | 0.062
CysCA (antibody, V domains shown) VH: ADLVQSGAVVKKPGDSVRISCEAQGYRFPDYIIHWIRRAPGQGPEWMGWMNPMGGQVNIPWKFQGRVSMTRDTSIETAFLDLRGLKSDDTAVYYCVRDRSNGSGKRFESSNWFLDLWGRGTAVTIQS VL: QSALTQPRSVSASPGQSVTISCTGTHNLVSWAQHQPGRAPKLLIYDFNKRPSGVPDRFSGSGSGGTASLTITGLQDDDDAEYFCWAYEAFGGGTKLTVL | = | 0.034
Germ23_NglycoSA_CysCV (antibody, V domains shown) VH: QVQLVQSGAEVKKPGASVKVSCEASGYRFPDYIIHWIRRAPGQGPEWMGWMNPMGGQVNIPWKFQGRVSMTRDTSIETAYMELRGLRSDDTAVYYCVRDRSNGAGKRFESSNWFLDLWGRGTLVTVSS VL: QSALTQPRSVSGSPGQSVTISCTGTHNLVSWVQHHPGKAPKLMIYDFNKRPSGVPDRFSGSGSGGTASLTISGLQAEDEAEYFCWAYEAFGGGTKLTVL | = | 0.064
